These measurements were taken from paper PMC4459817.

Tested on: Tie2+ ECs (HMVEC-LBl)
Assay Name: MTS cell viability assay, endothelial cells
Type: cell-based, human
Reported Conditions: Homo sapiens, Endothelial cell, 48 h, SU in MTS viability assay, 'normal' media (5% FBS); predetermined from dose-response curves; cell line of IC50 not clearly printed
Assay Endpoint: pIC50
Keep it numeric: pIC50 is minus log10 of the concentration in mol/L.

Query CCN(CC)CCNC(=O)c1c(C)[nH]c(/C=C2\C(=O)Nc3ccc(F)cc32)c1C [sunitinib, reference compound] on Tie2+ ECs (HMVEC-LBl); pIC50 returned: 5.70
